Test system: IL-1β stimulated PGE2 production
Assay: IL-1β stimulated PGE2 production cell culture assay, an inflammation model
Format: cell-based
Conditions: vitamin or vitamin derivative added to triclosan
Excerpt: The present invention is in part derived from a finding that, upon addition of an antioxidant vitamin or vitamin derivative to an antibacterial phenolic compound having anti-inflammatory activity, in particular a halogenated diphenylether compound having such activity, the anti-inflammatory activity can be enhanced.
readout.kind: enhancing the anti-inflammatory activity of triclosan

compound	test.value
CC(=O)Oc1c(C)c(C)c2c(c1C)CCC(C)(CCC[C@H](C)CCC[C@H](C)CCCC(C)C)O2 (stereo partly shown) [vitamin E acetate]	especially effective
O=C1O[C@H]([C@@H](O)CO)C(O)=C1O [ascorbic acid]	especially effective
Cc1c(C)c2c(c(C)c1O)CCC(C)(C(=O)O)O2 (stereo not shown) [TROLOX®]	especially effective
